This section presents log10 IC50 values reported for 5-hydroxytryptamine receptor 2A (Bos taurus, UniProt Q75Z89) in the literature.
Form field - Quantity: IC50; Unit: µM; Scale: log10

If you can, please state the reported log10 IC50 value of c1ccc(CN2CCN(c3nc4sccc4n4cccc34)CC2)cc1 .
1.29

For CCCN(CCCCN1C(=O)c2ccccc2C1=O)C1COc2cccc(OC)c2C1 (configuration not stated) then?
1.48

Then Cc1ccnc2c1nc(N1CCN(Cc3ccccc3)CC1)c1cccn12 ?
1.71

Next: CCOC(=O)CN1CCN(c2nc3ccsc3n3cccc23)CC1
1.85

Same read-out for CN1C(=O)COc2cc(CCN3CCN(c4cccc(C(F)(F)F)c4)CC3)ccc21 ?
-0.21

And CN1CCN(c2nc3cccnc3n3cccc23)CC1 ?
0.90

Same thing, different molecule: COc1ccc2c(c1)nc(N1CCN(CCCCn3cccn3)CC1)c1cccn12
0.21

For CC(C(O)c1ccc(O)cc1)N1CCC(Cc2ccccc2)CC1 (configuration not stated) then?
-0.21

Also, CCCN(CCCCN1C(=O)C2CCCC2C1=O)C1COc2cccc(OC)c2C1 (single isomer, unassigned; (+)) please.
1.00

And what about the molecule Fc1ccc(CN2CCN(c3nc4ccsc4n4cccc34)CC2)cc1 ?
1.35

Then what about the molecule Fc1ccc(CN2CCN(c3nc4cccnc4n4cccc34)CC2)cc1 ?
1.64

What do you get for CN1CCN(c2nc3cc(-c4ccccc4)sc3n3cccc23)CC1 ?
0.87

Follow-up entry: CCCN1CCN(c2nc3ccsc3n3cccc23)CC1
0.03

Also check Fc1ccc(CN2CCN(c3nc4sccc4n4cccc34)CC2)cc1
1.58

For COc1ccccc1N1CCN(CCCCc2ccc3c(c2)sc(=O)n3C)CC1 then?
0.00

Queued: CN1CCN(c2nc3cc(C(F)(F)F)ccc3n3cccc23)CC1
1.27

Can you handle O=C1c2ccccc2S(=O)(=O)N1CCCCN1CCN(c2ncccn2)CC1 next?
0.88

And the next one, CCCN(CCCCN1C(=O)CC(C)(C)CC1=O)C1COc2cccc(OC)c2C1 (configuration not stated) ?
0.78

Lookup CCCN(CCCCN1C(=O)CC2(CCCC2)CC1=O)C1COc2cccc(OC)c2C1.O=C(O)C(=O)O (single isomer, unassigned; (-))
0.70

Continue with COc1ccccc1N1CCN(CCCc2ccc3nc(O)sc3c2)CC1
-0.54

Ok, now c1cnc2ccc3nc(N4CCN(Cc5ccc6c(c5)OCO6)CC4)c4cccn4c3c2c1
1.30

# iterate: CCCN(CCCCN1CCOCC1)C1COc2cccc(OC)c2C1 (configuration not stated)
1.00

Please answer likewise for Oc1nc2ccc(CCN3CCN(c4ccccc4)CC3)cc2s1
-1.40

Can you check COc1ccccc1N1CCN(CCCCc2ccc3c(c2)OCC(=O)N3C)CC1 next?
-0.08

What about this molecule? C1=CCN(c2nc3ccsc3n3cccc23)CC1
2.05

Thanks! And Cn1c(=O)sc2cc(CCCCN3CCN(c4cccc(C(F)(F)F)c4)CC3)ccc21 ?
-0.40

Consider next the molecule CCCN(CCNS(=O)(=O)c1ccc(C)cc1)C1COc2cccc(OC)c2C1 (stereo in doubt; (-)-15b) in the same way.
1.00

Same lookup for C=CCN1CCN(c2nc3sccc3n3cccc23)CC1 , please.
0.37

Ok, now c1ccc(CN2CCN(c3nc4cc(-c5ccccc5)sc4n4cccc34)CC2)cc1
2.53

Repeat for the following molecule: CN1C(=O)COc2cc(CCCCN3CCN(c4cccc(C(F)(F)F)c4)CC3)ccc21
-0.21

Follow-up item: FC(F)(F)c1ccccc1CCN1CCN(c2nc3ccsc3n3cccc23)CC1
0.71
